study-target: Torsin-1A (Homo sapiens)
assay-remarks: TOR1A wild-type binding on microarray – cell lysate, small-molecule microarray, lysate, 635/667 nm, primary screen (AID 1149)
experimental-conditions: COS7 hTOR1A-WT lysate, 635 nm fluorescence, higher = more signal
Outcome label depends on composite z-score relative to 0.2: at/above gives met, below gives not met.

Recorded results for 5 compounds are shown here.
COCCOC(=O)N1C(=O)[C@@]2(c3ccccc31)[C@H](c1ccc(O)cc1)N1[C@H](c3ccccc3)[C@H](c3ccccc3)OC(=O)[C@H]1[C@@H]2C(=O)N1CCCCCCC1    met
CC(C)C(O)C1C=CC2C(=O)NC(=O)C2N1Nc1ccccn1 (configuration not stated)    met
COc1cc(C(O)C2C=CC3C(=O)N(c4ccccc4)C(=O)C3N2Nc2ccccc2)cc(OC)c1OC (configuration not stated)    not met
COC(=O)[C@H](Cc1ccccc1)N1CC2=CCCC=C[C@@H]2[C@H]1[C@H](O)Cc1ccccc1    not met
CCCCCCc1nc(-c2ccc(-c3ccc(Cl)c(Cl)c3)o2)cc2c1[Si](C(C)C)(C(C)C)OC2    not met

Field: next compound
Given the entry "C[N+](C)(C)CCCC[C@@H]1NC(=O)[C@@H]2C[C@H](C(=O)NCc3ccc(F)cc3)[C@H](c3ccc(O)cc3)N2C1=O" , answer whether its composite z-score meets or surpasses 0.2.
met

----------
assay-remarks: probe aNog binding to arrayed compounds – biochemical, biotinylated probe, 635/667 nm fluorescence, primary screen (AID 1115);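 also: probe is biotinylated aNog protein used at 0.15 µg/mL for 1 h at 4 C; z-score combines 667 nm fluorescence of each spot with its signal to noise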
experimental-conditions: small-molecule microarray, higher = more signal
Decide by composite z-score: equal to or exceeding 0.6 means t, less means f.

O=C1[C@H]2C=C(I)[C@H](C[C@@H]2OCCCCCCO)[C@@]12CO2    f
[N-]=[N+]=Nc1ccccc1[C@@H]1OC(c2ccc(OCCCO)cc2)=N[C@]1(Cc1ccccc1)C(=O)NCCN1CCOCC1    t
Cc1ccc(S[C@]2(C(=O)NCCCN(C)C)CC(=O)N(C3Cc4ccccc4C3)[C@@H]2c2ccc(CO)cc2I)cc1    f
CC(C)N1C(=O)c2ccccc2[C@@H](C(=O)NCC(F)(F)F)[C@@H]1c1ccc(CO)cc1    f

hey, is composite z-score for this one >= 0.6? [N-]=[N+]=Nc1ccccc1C[C@@]1(C(=O)NCC(O)CO)N=C(c2ccc(OCCCO)cc2)O[C@@H]1c1ccccc1 (stereo partly specified)
f

Now consider "CCOC(=O)C[C@H]1[C@H](OC(=O)c2cc3ccccc3oc2=O)[C@@H](NC(=O)CC(C)C)c2cc(OCCCO)ccc2N1C(=O)Cc1ccc(OC)cc1" and answer again.
f

Query NC(=O)N1C(=O)C2C(C1=O)C1C=C(CCCO)C2C(c2ccc(CN3CCCC3)cc2)N1Cc1cc2c(cc1Br)OCO2 (stereo unspecified) next
f

What about "CC(C)[Si](C#CCCc1ccccc1)(O[C@H](c1ccccc1)c1cn(Cc2ccccc2)nn1)C(C)C" ?
f

Proceed to [N-]=[N+]=Nc1ccccc1[C@H]1OC(c2ccc(OCCCO)cc2)=N[C@@]1(Cc1ccccc1)C(=O)NCC(O)CO (stereo partly specified)
f

Ok, now "CO[C@H]1O[C@H](CO)[C@@H](OC(=O)Nc2ccccc2)[C@H](OC(=O)Nc2ccccc2)[C@H]1OC(=O)Nc1ccccc1"
f

Could you do the same for O=C1C2C=CC(C(O)c3cccs3)N(Nc3ccc([N+](=O)[O-])cc3)C2C(=O)N1c1ccccc1 (stereo unspecified) , please?
t

And for "O=C(NCCN1CCOCC1)[C@@H]1c2ccccc2C(=O)N(Cc2ccc(OC(F)(F)F)cc2)[C@H]1c1ccc(CO)cc1" ?
t

// repeat for "COc1ccc(C#Cc2ccc3c(c2)[C@]2(C(=O)N3)[C@H](C(=O)O)[C@H]3C(=O)O[C@H](c4ccccc4)[C@H](c4ccccc4)N3[C@@H]2c2ccccc2OCCO)cc1" and report
f

Same question, "[N-]=[N+]=NCc1ccccc1[C@@H]1OC(c2ccc(OCCCO)cc2)=N[C@]1(Cc1ccccc1N=[N+]=[N-])C(=O)O" this time
t

Please give the result for CC1CC/C=C\[C@H]2OC34C=CCN(CCN5CCOCC5)C(=O)[C@H]3N(CCCO)C(=O)[C@@H]4C2C(=O)O1 (stereo partly specified) too.
f

// next record COc1cc(C(O)C2C=CC3C(=O)N(c4ccccc4)C(=O)C3N2Nc2ccccc2)cc(OC)c1OC (stereo unspecified)
t

How about "COc1ccc(C(=O)Nc2ccc3c(c2)[C@@]2(O[C@H](CCO)[C@@H]([Si](C)(C)c4ccc(OC)cc4)[C@@H]2C)C(=O)N3Cc2ccccc2)cc1" ?
f

Thanks! And "CN(C)CCCCNC(=O)[C@H]1C[C@H]2C(=O)N3CCC[C@H]3C(=O)N2[C@H]1c1cccc(OCCO)c1" ?
t

Subsequent entry: "C=CCNC(=O)[C@@H]1[C@H]2C(=O)O[C@H](c3ccccc3)[C@H](c3ccccc3)N2[C@H](c2ccc(OCCO)cc2)[C@@]12C(=O)Nc1ccc(C#CC3(O)CCCCCC3)cc12"
t

Also [N-]=[N+]=Nc1ccccc1[C@@H]1OC(c2ccc(OCCCO)cc2)=N[C@]1(CCS(=O)(=O)c1ccccc1)C(=O)NCC(O)CO (stereo partly specified) ?
f

Please give the result for "C=C(CCCC)/C(=C/C[C@@H](OC(C)=O)c1ccc(CO)o1)c1cnc2ccccc2c1" too.
f

Also, "CCCCC(=C=CC[C@H](O)c1ccc(CO)o1)CCO" please.
f

What about this molecule? "O=C1C[C@@](C(=O)NC2CC2)(c2ccc([N+](=O)[O-])cc2)[C@@H](c2ccc(CO)cc2)N1C1CCCCC1"
f

Also need "O=C1O[C@@H](c2ccccc2)[C@@H](c2ccccc2)N2[C@@H](c3ccccc3OCCO)[C@]3(C(=O)Nc4ccc(C#CCCO)cc43)[C@@H](C(=O)NC[C@H](O)c3ccccc3)[C@H]12" , thanks.
t

Would you mind doing "COC(=O)[C@]1(Cc2ccccc2)N=C(c2ccc(OCCCO)cc2)O[C@@H]1c1ccccc1CN=[N+]=[N-]" as well?
f

----------
Test system: Fibrinogen (Alexa647-labelled)
assay-remarks: Alexa647-fibrinogen binding to printed small molecules – biochemical, small-molecule microarray, 635/667 nm fluorescence, artefact control for SMM control-protein annotation, profiling panel (AID 1131);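 also: z-score merges 667 nm fluorescence with per-spot signal-to-noise over triplicate slides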
experimental-conditions: fibrinogen-A647 binding fluorescence, higher = more signal
readout-name: composite z-score
Give bare numbers.

Below, each entry is followed by its recorded composite z-score result.
O=C(NCC(O)CO)C1N=C(c2ccc(OCCCO)cc2)N(c2ccccc2)O1 (centres undefined)    0.0565
COCCCNC(=O)[C@@]1(CCC(=O)OC(C)(C)C)COC(c2ccc(OCCCO)cc2)=N1    1.04
CO[C@H]1O[C@H](CO)[C@@H](OC(=O)Nc2ccccc2-c2ccccc2)[C@H](OC(=O)Nc2ccccc2)[C@H]1OC(=O)Nc1ccccc1    0.991

As a next step, examine the compound that follows.
Item "CN(C)C(=O)[C@@]1(Cc2ccccc2CN=[N+]=[N-])COC(c2ccc(OCCCO)cc2)=N1" has what recorded composite z-score?
0.949

----------
assay-remarks: probe aEGFR binding to arrayed compounds – biochemical, biotinylated probe, 635/667 nm fluorescence, primary screen (AID 1097);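 also: probe is a biotinylated anti-EGFR antibody binding compounds printed on slides; score combines fluorescence near 667 nm and signal to noise of each spot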
experimental-conditions: small-molecule microarray, higher = more signal
Class true: composite z-score at least -0.03. Class false: composite z-score below -0.03.

Some solved cases for reference:
CCCc1cc2c(n1CCc1ccc(Cl)cc1)C(C)C1CN(C(=O)c3ccccc3)C(C)(C(=O)OC)C21 (stereo not drawn)    true
COc1ccc(C(=O)Nc2cccc(CN3C(=O)[C@@]4(O[C@@H](CC(=O)N5CCC[C@H]5CO)[C@H]([Si](C)(C)c5ccc(OC)cc5)[C@H]4C)c4ccccc43)c2)cc1    false
COc1ccc(C(=O)Nc2ccc(CN3C(=O)[C@@]4(O[C@@H](CCn5cc(CCO)nn5)[C@H]([Si](C)(C)c5ccc(OC)cc5)[C@H]4C)c4ccccc43)cc2)cc1    true
O=C1C[C@@](C(=O)NCc2ccccc2)(c2ccc([N+](=O)[O-])cc2)[C@@H](c2ccc(CO)cc2)N1C1CCCCC1    false
Cc1ccc(S[C@]2(C(=O)NCCCN(C)C)CC(=O)N(C3Cc4ccccc4C3)[C@@H]2c2ccc(CO)cc2I)cc1    false
CN(C)CCCNC(=O)[C@@]1(C)c2ccccc2C(=O)N(Cc2ccc(OC(F)(F)F)cc2)[C@H]1c1ccc(CO)cc1    false
COCC(=C=CC[C@H](O)c1ccccc1OCCO)C[C@H](O)COCc1ccccc1    true

Proceed to the following item.
Could you tell me if the measured composite z-score of "COC(=O)[C@@]1(Cc2ccccc2)N=C(c2ccc(OCCCO)cc2)O[C@H]1c1ccccc1CN=[N+]=[N-]" reaches -0.03 or more?
true

----------
assay-remarks: JC-1 mitochondrial signal, unstimulated adipocytes – cell-based, JC-1 fluorescence, 3T3-L1 adipocytes, 24 h, 100 nL compound, profiling panel (AID 1168); also: test concentration not given here
experimental-conditions: JC-1 mitochondrial fluorescence, higher = more signal, called active from +8 up or from −8 down
Active and inactive are the calls of the source.
What z-score was measured for each of the following?

Consider the following illustrative entries.
C=C1C(=O)C=C2CN(C(=O)c3ccccc3)[C@@](Cc3ccc(OC)cc3)(C(=O)OC)[C@@H]12    -1.02 (inactive)
C=CCNC(=O)[C@@H]1[C@H]2C(=O)O[C@H](c3ccccc3)[C@H](c3ccccc3)N2[C@H](c2ccc(OCCO)cc2)[C@@]12C(=O)Nc1ccc(C#CC3(O)CCCCCC3)cc12    -0.848 (inactive)

Return reported z-score values for all items listed beneath this line.
1. COc1cc(OC)c(C(O)C2C=CC3C(=O)N(c4ccccc4)C(=O)C3N2Nc2ccc(C(C)C)cc2)cc1Br (configuration not stated)
2. Cc1ccc(S[C@]2(C(=O)NCCCN(C)C)CC(=O)N(C3Cc4ccccc4C3)[C@@H]2c2ccc(CO)cc2I)cc1
3. CC(C)C[C@H]1NC(=O)C([C@@H](C)OCc2ccccc2)NC(=O)[C@@]23C(=O)N[C@@H](Cc4ccccc4)C2[C@H](C)[C@@]2(C)O[C@H]2C3/C=C/C/C=C\CNC1=O (some centres not stated)
4. CCCCC(O)C1C=CC2C(=O)N(c3ccccc3)C(=O)C2N1Nc1ccccc1 (configuration not stated)

["-0.171 (inactive)", "-1.28 (inactive)", "0.679 (inactive)", "0.466 (inactive)"]

Item under review: Cc1ccc(C(C)CC(O)C2C=CC3C(=O)N(C)C(=O)C3N2Nc2ccccc2)o1 (configuration not stated) . Reported z-score?
-0.592 (inactive)

Just for reference, PubChem BioAssay is where these values come from.
